Some binders, each annotated with its measured apparent Kd (screen).
Target: T1, TNFR1 (Homo sapiens, UniProt P19438)
T1 chain: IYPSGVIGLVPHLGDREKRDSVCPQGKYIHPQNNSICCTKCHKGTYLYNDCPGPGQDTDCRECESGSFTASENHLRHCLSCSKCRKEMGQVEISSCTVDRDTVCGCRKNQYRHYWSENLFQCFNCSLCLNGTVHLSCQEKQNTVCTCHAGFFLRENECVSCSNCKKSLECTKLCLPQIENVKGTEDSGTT
Assay: yeast display SC50
Give just the numeric value; nM need not be written.

Notebook: L6K (designed binder) MTLQEKLREEALRRAEAEAFRYALELLAEKFPEQKEYLLDLAEEIESQIRSLSGVDVEDVRKFLDKEWAWVKELLAEHPAELAEVEAARAARLAELRAEVEAKVAA , apparent Kd (screen) read as 7.07

The reported measurements were obtained from paper PMC12416549.
